Below, each entry is listed with its recorded gcPBM binding intensity (ln).
- Tested on: PfAP2-EXP AP2 domain (GST-tagged)
- EXPERIMENT_SUMMARY: gcPBM binding intensity (ln(normalized median fluorescence intensity)); higher = stronger DNA binding
Whole data set: some 25,000 sequences, median “ln(normalized median fluorescence intensity)” near 8.6, cut for the highest 2% near 10. The sample as a whole holds a higher share of the highest values than the screen did.

Would you please look over these solved cases?
query_sequence="ATGTAAGTTGTGCATTCACACACATATATATATATA [CACACA_site9086]" readout_value=10.2
query_sequence="AATTATCAAAGTCTATACATACATACATACATACAT [GTGCAC_negctrl_site243]" readout_value=8.95

Ask: Answer with the recorded gcPBM binding intensity (ln) for the sequence listed here: TAATATTATTTTTCAGTGCAATATAACCTTAGAATT [GTGCAC_site9417]
Result: 8.38

Ask: Answer with the recorded gcPBM binding intensity (ln) for the sequence listed here: TTAGATATAATATATACACACCAACGAACGAAGAAA [CACACA_site4763]
Result: 9.12

* * *

- System: PfAP2-EXP AP2 domain (GST-tagged)
- EXPERIMENT_SUMMARY: gcPBM binding intensity (ln(normalized median fluorescence intensity)); higher = stronger DNA binding
In all, about 25,000 sequences were measured (“ln(normalized median fluorescence intensity)”: median about 8.6, highest 2% from about 10 on). Many of the other results were omitted from the sample, so the highest values are more common in it than they were.
Below, each entry is listed with its recorded gcPBM binding intensity (ln).
Answer with a bare number; do not write a unit.

query_sequence="CAACATTTGAAACACACACACATACAAACAAACAAA [CACACA_site3306]" target_of_assay="PfAP2-EXP AP2 domain (GST-tagged)" readout_value=8.89
query_sequence="ATACACAAATGCATACGTACATATATATATATATAT [XGTACX_site3504]" target_of_assay="PfAP2-EXP AP2 domain (GST-tagged)" readout_value=10.2
query_sequence="AAAATAATAAATAAATGTACATATATATATATATAT [XGTACX_site3078]" target_of_assay="PfAP2-EXP AP2 domain (GST-tagged)" readout_value=10.2

Ask: Answer with the recorded gcPBM binding intensity (ln) for the sequence listed here: TATATATATAACAGAATGCACTTTATATGTTCATAT [GTGCAC_site9880]
Result: 8.94

Ask: Answer with the recorded gcPBM binding intensity (ln) for the sequence listed here: ATATTGAATTCCAACACATGCAAAACTTTCGGTTTT [TGCATGCA_site485]
Result: 8.8

Ask: Answer with the recorded gcPBM binding intensity (ln) for the sequence listed here: AATGTACAAATACGTACACACATATATATATATATA [CACACA_site1542]
Result: 10.1

* * *

- Test system: PfAP2-EXP AP2 domain (GST-tagged)
- EXPERIMENT_SUMMARY: gcPBM binding intensity (ln(normalized median fluorescence intensity)); higher = stronger DNA binding
Over roughly 25,000 sequences, “ln(normalized median fluorescence intensity)” has its median near 8.6; the highest 2% begin near 10. What follows is part of a selection rich in the highest values, with near analogues and random picks from the rest.
Below, each entry is listed with its recorded gcPBM binding intensity (ln).
Answer with a bare number; do not write a unit.

Would you please look over these solved cases?
query_sequence="ATATTGGAGCACAACACACACAAGTATATATATGGA [CACACA_site1546]" readout_value=8.8
query_sequence="TATATATATTTATGTACACACACACCGATAAATAAA [CACACA_site4404]" readout_value=8.91
query_sequence="ATATACACATTAATAACACACAATATGATAACAAAT [CACACA_site7670]" readout_value=8.79

Ask: Answer with the recorded gcPBM binding intensity (ln) for the sequence listed here: CATATTTGTTGACACACACACATATTTATATAAATA [CACACA_site7648]
Result: 8.74

* * *

- Tested on: PfAP2-EXP AP2 domain (GST-tagged)
- EXPERIMENT_SUMMARY: gcPBM binding intensity (ln(normalized median fluorescence intensity)); higher = stronger DNA binding
Whole data set: some 25,000 sequences, median “ln(normalized median fluorescence intensity)” near 8.6, cut for the highest 2% near 10. For the sample, the highest values were picked, then their nearest neighbours and some sequences at random.
Below, each entry is listed with its recorded gcPBM binding intensity (ln).
Answer with a bare number; do not write a unit.

Ask: Answer with the recorded gcPBM binding intensity (ln) for the sequence listed here: ATATATATATTTGTATGTACATATATATATTCGTAT [XGTACX_site1640]
Result: 9.23

Ask: Answer with the recorded gcPBM binding intensity (ln) for the sequence listed here: CTCATAATTTCTGAACGTACGTATTTCTCATTTTTA [XGTACX_site7296]
Result: 8.83

* * *

- Tested on: PfAP2-EXP AP2 domain (GST-tagged)
- EXPERIMENT_SUMMARY: gcPBM binding intensity (ln(normalized median fluorescence intensity)); higher = stronger DNA binding
In all, about 25,000 sequences were measured (“ln(normalized median fluorescence intensity)”: median about 8.6, highest 2% from about 10 on). For the sample, the highest values were picked, then their nearest neighbours and some sequences at random.
# label = 1 (yes) if gcPBM binding intensity (ln) >= 9 else 0 (no)

Please review the entries below; each comes with its answer.
query_sequence="AAAAAAAAAAAACACACACACACACCCAAATATATA [CACACA_site150]" target_of_assay="PfAP2-EXP AP2 domain (GST-tagged)" discrete_label="0 (no)"
query_sequence="CTGAAGAAACTACAACGTACAAAATATGTATATATT [XGTACX_site3779]" target_of_assay="PfAP2-EXP AP2 domain (GST-tagged)" discrete_label="0 (no)"
query_sequence="ATAATAAAAAAAATTAGTACATATATAAATATAAAT [XGTACX_site1937]" target_of_assay="PfAP2-EXP AP2 domain (GST-tagged)" discrete_label="0 (no)"
query_sequence="TTAAAAAAAAAAAAAAGTACATAAGTATATATAATA [XGTACX_site4295]" target_of_assay="PfAP2-EXP AP2 domain (GST-tagged)" discrete_label="0 (no)"
query_sequence="ATATATATATATATATGTACTTATTTATATATTTAT [XGTACX_site7811]" target_of_assay="PfAP2-EXP AP2 domain (GST-tagged)" discrete_label="1 (yes)"
query_sequence="TTGTTAATATATATATGTACTTATTTATTTATTTAT [XGTACX_site2274]" target_of_assay="PfAP2-EXP AP2 domain (GST-tagged)" discrete_label="0 (no)"
query_sequence="AACACAAGAACAGAACGTACACACACATATATATAT [XGTACX_site7347]" target_of_assay="PfAP2-EXP AP2 domain (GST-tagged)" discrete_label="1 (yes)"
query_sequence="AAAATTGTTATTTTATGTACTTATATTTATTTATTT [XGTACX_site3478]" target_of_assay="PfAP2-EXP AP2 domain (GST-tagged)" discrete_label="0 (no)"
query_sequence="TAAAAATATAGGTATACACACATATAAATATAAATA [CACACA_site7785]" target_of_assay="PfAP2-EXP AP2 domain (GST-tagged)" discrete_label="0 (no)"
query_sequence="AAAATGTACTTTTTCTAAAGAGTAATGATGCTTGAT [CACACA_negctrl_site1124]" target_of_assay="PfAP2-EXP AP2 domain (GST-tagged)" discrete_label="0 (no)"

Ask: Does gcPBM binding intensity (ln) meet or surpass 9 for ATATATATATATATATGTACTTATTTATTTATTTAT [XGTACX_site4645] ?
Result: 1 (yes)

Ask: Does gcPBM binding intensity (ln) meet or surpass 9 for ATTACATGCAATATATGTACGTAATATATATATATA [XGTACX_site2300] ?
Result: 1 (yes)

Ask: Does gcPBM binding intensity (ln) meet or surpass 9 for TATATATATATATATTGTACTTATGTTTATATTCAT [XGTACX_site6258] ?
Result: 1 (yes)

Ask: Does gcPBM binding intensity (ln) meet or surpass 9 for AATGAAAGGATGCTGTGTACATATATATATATATAT [XGTACX_site7901] ?
Result: 1 (yes)

Ask: Does gcPBM binding intensity (ln) meet or surpass 9 for TACATACAGAAACACACACACACATATATATATATA [CACACA_site2919] ?
Result: 1 (yes)

Ask: Does gcPBM binding intensity (ln) meet or surpass 9 for TTGTAATTCATTCAAATATAAAATAAATAAATATGA [CACACA_negctrl_site349] ?
Result: 0 (no)

Ask: Does gcPBM binding intensity (ln) meet or surpass 9 for ACAAGAACAGAACGTACACACACATATATATATATA [CACACA_site9143] ?
Result: 1 (yes)

Ask: Does gcPBM binding intensity (ln) meet or surpass 9 for ATAATATAAATATGCACACAAATTATTACCCAAAAA [CACACA_site2524] ?
Result: 0 (no)
